These data points were gathered from the RNAGym collection of RNA variant scans (doi:10.1038/nmeth.2970).

B1: NELF-E aptamer (parent)
chain: CCCAACGACUGCCGAGCGAGAUUACGCUUGAGCGCCCCACUGAGGAUGCCCACGGGCGAUUGGGGCACGG

# Variants of: B1
# test-details: HiTS-RAP
# condition-set: with NELF-E (Drosophila)
Listed next: entries and their corresponding Kd.
Express your answer as a number followed by its unit.

C9G U23A	6.12 nM
G7U U22A	6.43 nM
A4G C57U	5.88 nM
U29G G64U	6.21 nM
G16A A24G	6.88 nM

## Input I would be grateful if you could share the reported Kd for A8G G14U .
## Output 7.09 nM

## Input I would be grateful if you could share the reported Kd for A5G G20U .
## Output 6.78 nM
